# tested.on: T1, T. suis A ΔC28 (Trichuris suis BCL-2-like protein A, C-terminal truncation) (Trichuris suis, labelled with the NHS RED NanoTemper labelling kit (MO-L001) for MST)
# T1 chain: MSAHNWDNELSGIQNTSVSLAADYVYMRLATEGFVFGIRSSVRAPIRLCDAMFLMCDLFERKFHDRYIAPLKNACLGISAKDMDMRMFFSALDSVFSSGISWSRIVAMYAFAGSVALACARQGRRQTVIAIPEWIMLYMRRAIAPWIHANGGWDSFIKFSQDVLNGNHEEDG
# assay.text: MST; Monolith NT.115; protein labelled with NHS RED, unlabelled synthetic peptide diluted in phosphate-buffered saline; 30 min incubation; 25 °C; 40% LED and 40% MST power; three independent experiments, single binding model
# condition.summary: both partners purified
assay.metric: Kd

binder | result.value
SVRAPIRLCDAMFLMCDLFERKFHDR (BH3 domain of Trichuris suis BCL-2-like protein A (ID# BCL_199); also called T. suis A BH3 domain peptide; source: synthetic peptide (Mimotopes, Australia, >90% purity)) [T. suis protein A BH3 peptide] | > 50 µM
PILPEVNKTALCMRAMGEVFEDRYKT (BH3 domain of Trichuris suis BCL-2-like protein B (ID# BCL_257); also called T. suis B BH3 domain peptide; source: synthetic peptide (Mimotopes, Australia, >90% purity)) [T. suis protein B BH3 peptide] | > 50 µM
